# credit: ChEMBL document CHEMBL1147843

Test system: DNA
Assay: Binding affinity to calf thymus DNA at 20 uM after 18 hrs by thermal denaturation assay
Assay type: nucleic-acid assay
Settings: Bos taurus
REPORTED METRIC: ΔTm (°C)

A: O=Cc1ccc(C2=CN3C(=O)c4ccccc4NC(=O)[C@@H]3C2)cc1
B: O=C1Nc2ccccc2C(=O)N2C=C(c3cccc4ccccc34)C[C@@H]12
Q. Param pair: A , B . Output: the one whose ΔTm is numerically greater. Please indicate the selected item by its label.
A. B

I: Nc1ccc(C2=CN3C(=O)c4ccccc4NC(=O)[C@@H]3C2)cc1
II: O=C1Nc2ccccc2C(=O)N2C=C(c3ccc(Cl)c(Cl)c3)C[C@@H]12
Q. Which item exceeds the other in ΔTm, I or II ? Bench note: the answer is the label of the chosen record.
A. II

I: O=C1Nc2ccccc2C(=O)N2C=C(c3cccc([N+](=O)[O-])c3)C[C@@H]12
II: O=C1Nc2ccccc2C(=O)N2C=C(c3ccccc3)C[C@@H]12
Q. Sorting ascending by ΔTm, which comes first: I or II ? Write down the label of the entry you select.
A. I
